Attribution: the supplement of paper PMC6555819

Test system: LXRa:RXRa (NR concentration 270 nM, RXRa partner concentration 90 nM)
test: PBM binding z-score (relative to random genomic background probes); higher = stronger binding; sequences stand for … in GC…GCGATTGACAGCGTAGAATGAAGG
sequences and their reported PBM binding z-score

>  <sequence text>
CGTCCAAGGTCGGAGAGGTCAGTGAATGCCGAGT

>  <PBM binding z-score>
3.06

$$$$
>  <sequence text>
GTACCAAGGTGAATAGTTCGTTGATGAGTAGGCG

>  <PBM binding z-score>
0.334

$$$$
>  <sequence text>
ATCGAAAGGTCGACGAAGTGAGTATACACCGTTT

>  <PBM binding z-score>
2.87

$$$$
>  <sequence text>
CAAACTAGATCACAGAGGTCAAAGTCCGTGCGTA

>  <PBM binding z-score>
5.45

$$$$
>  <sequence text>
CCGACTGGGGCAAGGTTACCATCACGCACAGCCA

>  <PBM binding z-score>
0.447

$$$$
>  <sequence text>
CCTCCGAGGACAACAGGAGGTCAGAGCTGCCAGA

>  <PBM binding z-score>
2.3

$$$$

====

Quick reference: PBM binding z-score of the listed items.
Tested on: RXRa DBDmut IVT, anti-RXR (DBD mutation: RXRa K156A/R161A, NR concentration 90 nM)
test: PBM binding z-score (relative to random genomic background probes); higher = stronger binding; sequences stand for … in GC…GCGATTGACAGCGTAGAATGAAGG
result type: PBM binding z-score

>  <sequence text>
TCAAGTTGGTCAAAGGTCACACACTCGAAATGCG

>  <result type>
PBM binding z-score

>  <recorded result>
2.15

$$$$
>  <sequence text>
CCTGCTAGGTCAATGGTCCGCTAAAGCAGCTCGC

>  <result type>
PBM binding z-score

>  <recorded result>
1.71

$$$$
>  <sequence text>
AGTCAAAGTACAGGACGAGGTAACGTAAAGCACG

>  <result type>
PBM binding z-score

>  <recorded result>
-0.155

$$$$
>  <sequence text>
GCGAGTGGGGCAAAGCAGGTTACCATAAGGTTGG

>  <result type>
PBM binding z-score

>  <recorded result>
-0.292

$$$$
>  <sequence text>
TTACCAAGGTGAAGGTCGTTCATCCCTCTGTAGA

>  <result type>
PBM binding z-score

>  <recorded result>
0.548

$$$$
>  <sequence text>
TGTCGGAGGACACGAAGGTCAGAGCTTTCCAGAG

>  <result type>
PBM binding z-score

>  <recorded result>
-0.488

$$$$
>  <sequence text>
TCTAGTTGGTCACGGAGGTCACACATGACGGGTA

>  <result type>
PBM binding z-score

>  <recorded result>
1.1

$$$$
>  <sequence text>
CCAACTGGGCCATTCAGAGGTCATTGATCATATG

>  <result type>
PBM binding z-score

>  <recorded result>
1.22

$$$$
>  <sequence text>
TAGCCTAGGTCATTCAGGGGCCCGTATAGAAAGC

>  <result type>
PBM binding z-score

>  <recorded result>
1.39

$$$$
>  <sequence text>
AGAATGCGGTTATACGTAGATCAGGGAAGAAAGT

>  <result type>
PBM binding z-score

>  <recorded result>
-0.501

$$$$
>  <sequence text>
TGTCAAAGTTCAAAGGTAACGAAAGTATCCACAC

>  <result type>
PBM binding z-score

>  <recorded result>
4.4

$$$$
>  <sequence text>
TCTTGTAGACCAAGCAGGTTAAGAAAGCCTGAGT

>  <result type>
PBM binding z-score

>  <recorded result>
0.787

$$$$
>  <sequence text>
CTCGAAAGGTCGGTTGAGGTGAATATACGGATAA

>  <result type>
PBM binding z-score

>  <recorded result>
0.545

$$$$
>  <sequence text>
CCTACTGGGCCACGAAAGATCATTGATTCAGTGA

>  <result type>
PBM binding z-score

>  <recorded result>
-0.361

$$$$
>  <sequence text>
CGAACTAGGTCAGAACAGGACGGTGAAGGATGAT

>  <result type>
PBM binding z-score

>  <recorded result>
0.53

$$$$
>  <sequence text>
ATCGGAAGGTCGACGAGGTGAGTATACACCGTTT

>  <result type>
PBM binding z-score

>  <recorded result>
0.311

$$$$
>  <sequence text>
AGATCGAGGGCACGCTGAGTTGATAGCAGAGTAG

>  <result type>
PBM binding z-score

>  <recorded result>
1.57

$$$$
>  <sequence text>
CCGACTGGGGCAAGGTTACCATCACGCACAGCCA

>  <result type>
PBM binding z-score

>  <recorded result>
-0.402

$$$$
>  <sequence text>
GCGACTGGGGCAAAGCAGGTTACCAGAAGGTTGG

>  <result type>
PBM binding z-score

>  <recorded result>
-0.155

$$$$
>  <sequence text>
TCTGCTAGGTCTACGATGGTCAGCTAATCTGCTA

>  <result type>
PBM binding z-score

>  <recorded result>
0.00299

$$$$
>  <sequence text>
ATCTCTAGGTAAAGTTCGGTGAAAGATCGATAGA

>  <result type>
PBM binding z-score

>  <recorded result>
0.694

$$$$
>  <sequence text>
GCTAGCAGGCCATTTGTGTCACTCAATGACGGGC

>  <result type>
PBM binding z-score

>  <recorded result>
0.131

$$$$
>  <sequence text>
ATATGTAGGTTACATCCGGGTCATTCCGGCTATG

>  <result type>
PBM binding z-score

>  <recorded result>
1.21

$$$$
>  <sequence text>
CGTCAAAGTTCAAGGTAACGTATCAGAAAGCAGC

>  <result type>
PBM binding z-score

>  <recorded result>
4.52

$$$$
>  <sequence text>
GATACAGGGTCTAGGCCAGAGTACGCGTATTGAT

>  <result type>
PBM binding z-score

>  <recorded result>
-0.382

$$$$
>  <sequence text>
GCATATAGGTAATACAAGGTGAAAGTCCGATTGT

>  <result type>
PBM binding z-score

>  <recorded result>
0.387

$$$$

====

// reported PBM binding z-score per item
System: RXRa DBDmut IVT, anti-RXR (DBD mutation: RXRa K156A/R161A, NR concentration 90 nM)
test: PBM binding z-score (relative to random genomic background probes); higher = stronger binding; sequences stand for … in GC…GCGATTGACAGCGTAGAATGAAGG

>  <sequence text>
CTCGAAAGGTCGTGCTCAGGTGAGTATCCCAAAC

>  <PBM binding z-score>
2.02

$$$$
>  <sequence text>
TAGTCTAGGTCATTGGGCCAGTATAGTACGCATC

>  <PBM binding z-score>
1.95

$$$$
>  <sequence text>
TCTATTTGTTGATTAGGGCAACCGAAACAGCGGA

>  <PBM binding z-score>
1.28

$$$$
>  <sequence text>
CGAACTAGGTCATCCGGGACAGTGAATACATTGA

>  <PBM binding z-score>
2.41

$$$$
>  <sequence text>
TCTATTAGTTGAAGGGCAACCTACGAGTCCGTTT

>  <PBM binding z-score>
1.51

$$$$
>  <sequence text>
ACTATTAGTTGAGACGAGGGCAATCGATAGGTTG

>  <PBM binding z-score>
0.801

$$$$
>  <sequence text>
CTCGAAAGGTCGGTTGAGGTGAGTCTACGGATAA

>  <PBM binding z-score>
1.03

$$$$
>  <sequence text>
CGTCGAAGGTCAGCAGGTCAGTGAAAGCGACGTG

>  <PBM binding z-score>
1.34

$$$$
>  <sequence text>
ATCTCTGGGTAAAAGTTCAGTGAATCCCGAGGAT

>  <PBM binding z-score>
0.812

$$$$
>  <sequence text>
GGAACGAGGGCAAAGTTGATAGCGTCTGTCGACG

>  <PBM binding z-score>
2.69

$$$$
>  <sequence text>
CCGACTGGGGCATAAGGTTACCATAAGCCAGCCC

>  <PBM binding z-score>
-0.574

$$$$
>  <sequence text>
TCTGCTAAGTCAGTTGGTCAGCTAACGAGCTGCC

>  <PBM binding z-score>
-0.0698

$$$$

====

Test system: PXR:RXRa (NR concentration 270 nM, RXRa partner concentration 90 nM)
test: PBM binding z-score (relative to random genomic background probes); higher = stronger binding; sequences stand for … in GC…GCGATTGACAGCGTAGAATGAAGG
Each item that follows carries a reported PBM binding z-score.

>  <sequence text>
ATCTCTAGGTAAAGATAGTTCAGTGACTGCAAAT

>  <PBM binding z-score>
1.06

$$$$
>  <sequence text>
TCTCGCAGGACACGAAGGTCAGAGCTTTCCAGAG

>  <PBM binding z-score>
1.44

$$$$
>  <sequence text>
TCATATAGGTGATACAGGTGAAAGTCGGCATCTA

>  <PBM binding z-score>
0.783

$$$$
>  <sequence text>
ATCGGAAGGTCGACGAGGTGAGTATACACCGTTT

>  <PBM binding z-score>
1.38

$$$$
>  <sequence text>
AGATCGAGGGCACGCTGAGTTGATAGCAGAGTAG

>  <PBM binding z-score>
1.31

$$$$
>  <sequence text>
CGTCAAAGTTCAACTAAGGGAACGTAAAGCACGC

>  <PBM binding z-score>
4.91

$$$$
>  <sequence text>
CCAGACAGGTGAGAAAGTAACTCAGCCTCGATTA

>  <PBM binding z-score>
-0.35

$$$$
>  <sequence text>
ACTATTAGTTGACTTAGGGCAAACGATACGACGC

>  <PBM binding z-score>
0.274

$$$$
>  <sequence text>
AGTCAAAGTTCACTAGGTATCGTAAGATTCAGCT

>  <PBM binding z-score>
4.04

$$$$
>  <sequence text>
CCTCGGAGGATAACAGGAGGTCAGAGCTGCCAGA

>  <PBM binding z-score>
1.78

$$$$
>  <sequence text>
CGTCAAAGTTGAACTAAGGTAACGTAAAGCACGC

>  <PBM binding z-score>
2.35

$$$$
>  <sequence text>
ACTATTAGTTGGCTTAGGGCAACCGATACGACGC

>  <PBM binding z-score>
-0.139

$$$$
>  <sequence text>
AGAACGAGGGCACGCTGAGTTGATTGCAGAGTAG

>  <PBM binding z-score>
1.56

$$$$
>  <sequence text>
TCTTGGAGGACACGAAAGGTCAGAGCTCGACATC

>  <PBM binding z-score>
4.16

$$$$
>  <sequence text>
GCTAGCAGGCCATTTGGGTCCCTCAATGACGGGC

>  <PBM binding z-score>
-0.687

$$$$
>  <sequence text>
CCTCGGAGGACAGAAGGTCAGAGATGTCCGCTTT

>  <PBM binding z-score>
1.41

$$$$
>  <sequence text>
TCTAGTTGGTCAAATGTCACACACTCGAAATGCG

>  <PBM binding z-score>
1.09

$$$$
>  <sequence text>
TCGCCTAGGTCAGATCGGGCCAGTATACGCTATA

>  <PBM binding z-score>
1.23

$$$$
>  <sequence text>
CCTAGTTGGTCAAGGTCAGACACGCTATAGGTAC

>  <PBM binding z-score>
2.52

$$$$
>  <sequence text>
ATCTCTAGGTAAGACTCAGTTCAGTTAAGAACGC

>  <PBM binding z-score>
1.11

$$$$
>  <sequence text>
CCTACTGGGCCATTCAGAGGTCATTGAGCATATG

>  <PBM binding z-score>
4.88

$$$$
>  <sequence text>
AGAATGAGGTTACCAAAGATCAGGTAAACGCTTG

>  <PBM binding z-score>
1.64

$$$$
>  <sequence text>
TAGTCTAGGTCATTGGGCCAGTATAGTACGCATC

>  <PBM binding z-score>
1.95

$$$$
>  <sequence text>
TAACCAAGGTGAAAGGTCGTTGATGCACGCCTTG

>  <PBM binding z-score>
4.25

$$$$
>  <sequence text>
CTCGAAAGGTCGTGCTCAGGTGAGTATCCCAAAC

>  <PBM binding z-score>
3.1

$$$$
>  <sequence text>
CCTAGCAGCCCAATCTGGGTCACTCAAGGCTTGA

>  <PBM binding z-score>
0.268

$$$$
